Biological target: T1, G9a and GLP (Homo sapiens, UniProt Q96KQ7+Q9H9B1)
T1 sequence (Q96KQ7 2-1210 limits assumed): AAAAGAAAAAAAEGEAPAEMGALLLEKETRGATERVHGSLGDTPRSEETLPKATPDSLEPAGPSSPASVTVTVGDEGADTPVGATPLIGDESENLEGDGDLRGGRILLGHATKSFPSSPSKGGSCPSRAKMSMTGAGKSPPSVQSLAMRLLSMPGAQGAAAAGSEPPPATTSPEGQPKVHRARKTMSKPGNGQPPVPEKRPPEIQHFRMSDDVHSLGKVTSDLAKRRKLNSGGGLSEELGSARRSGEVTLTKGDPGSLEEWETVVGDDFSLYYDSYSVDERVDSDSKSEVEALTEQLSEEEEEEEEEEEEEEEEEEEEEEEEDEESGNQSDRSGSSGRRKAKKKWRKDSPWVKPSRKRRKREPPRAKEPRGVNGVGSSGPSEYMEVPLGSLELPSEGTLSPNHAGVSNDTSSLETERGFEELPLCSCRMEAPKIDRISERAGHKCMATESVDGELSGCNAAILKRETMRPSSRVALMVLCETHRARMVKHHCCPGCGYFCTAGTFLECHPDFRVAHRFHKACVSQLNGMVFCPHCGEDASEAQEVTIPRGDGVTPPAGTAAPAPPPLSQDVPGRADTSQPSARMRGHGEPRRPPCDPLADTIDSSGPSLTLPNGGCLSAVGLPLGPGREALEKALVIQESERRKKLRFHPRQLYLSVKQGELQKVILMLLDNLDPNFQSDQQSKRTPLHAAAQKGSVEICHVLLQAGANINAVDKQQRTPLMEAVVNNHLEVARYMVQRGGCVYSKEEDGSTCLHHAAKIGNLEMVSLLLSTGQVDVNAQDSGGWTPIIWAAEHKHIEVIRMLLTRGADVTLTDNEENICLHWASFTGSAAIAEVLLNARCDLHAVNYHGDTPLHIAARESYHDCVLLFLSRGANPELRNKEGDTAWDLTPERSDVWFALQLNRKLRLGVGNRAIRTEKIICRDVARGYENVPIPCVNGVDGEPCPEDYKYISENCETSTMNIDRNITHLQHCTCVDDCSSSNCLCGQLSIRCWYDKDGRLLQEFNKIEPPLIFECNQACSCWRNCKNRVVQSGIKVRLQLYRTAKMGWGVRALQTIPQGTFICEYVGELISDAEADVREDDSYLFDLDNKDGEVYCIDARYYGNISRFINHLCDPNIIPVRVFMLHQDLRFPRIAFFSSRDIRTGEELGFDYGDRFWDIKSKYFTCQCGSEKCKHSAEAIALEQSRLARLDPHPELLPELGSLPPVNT
T1 sequence (Q9H9B1 2-1298 limits assumed): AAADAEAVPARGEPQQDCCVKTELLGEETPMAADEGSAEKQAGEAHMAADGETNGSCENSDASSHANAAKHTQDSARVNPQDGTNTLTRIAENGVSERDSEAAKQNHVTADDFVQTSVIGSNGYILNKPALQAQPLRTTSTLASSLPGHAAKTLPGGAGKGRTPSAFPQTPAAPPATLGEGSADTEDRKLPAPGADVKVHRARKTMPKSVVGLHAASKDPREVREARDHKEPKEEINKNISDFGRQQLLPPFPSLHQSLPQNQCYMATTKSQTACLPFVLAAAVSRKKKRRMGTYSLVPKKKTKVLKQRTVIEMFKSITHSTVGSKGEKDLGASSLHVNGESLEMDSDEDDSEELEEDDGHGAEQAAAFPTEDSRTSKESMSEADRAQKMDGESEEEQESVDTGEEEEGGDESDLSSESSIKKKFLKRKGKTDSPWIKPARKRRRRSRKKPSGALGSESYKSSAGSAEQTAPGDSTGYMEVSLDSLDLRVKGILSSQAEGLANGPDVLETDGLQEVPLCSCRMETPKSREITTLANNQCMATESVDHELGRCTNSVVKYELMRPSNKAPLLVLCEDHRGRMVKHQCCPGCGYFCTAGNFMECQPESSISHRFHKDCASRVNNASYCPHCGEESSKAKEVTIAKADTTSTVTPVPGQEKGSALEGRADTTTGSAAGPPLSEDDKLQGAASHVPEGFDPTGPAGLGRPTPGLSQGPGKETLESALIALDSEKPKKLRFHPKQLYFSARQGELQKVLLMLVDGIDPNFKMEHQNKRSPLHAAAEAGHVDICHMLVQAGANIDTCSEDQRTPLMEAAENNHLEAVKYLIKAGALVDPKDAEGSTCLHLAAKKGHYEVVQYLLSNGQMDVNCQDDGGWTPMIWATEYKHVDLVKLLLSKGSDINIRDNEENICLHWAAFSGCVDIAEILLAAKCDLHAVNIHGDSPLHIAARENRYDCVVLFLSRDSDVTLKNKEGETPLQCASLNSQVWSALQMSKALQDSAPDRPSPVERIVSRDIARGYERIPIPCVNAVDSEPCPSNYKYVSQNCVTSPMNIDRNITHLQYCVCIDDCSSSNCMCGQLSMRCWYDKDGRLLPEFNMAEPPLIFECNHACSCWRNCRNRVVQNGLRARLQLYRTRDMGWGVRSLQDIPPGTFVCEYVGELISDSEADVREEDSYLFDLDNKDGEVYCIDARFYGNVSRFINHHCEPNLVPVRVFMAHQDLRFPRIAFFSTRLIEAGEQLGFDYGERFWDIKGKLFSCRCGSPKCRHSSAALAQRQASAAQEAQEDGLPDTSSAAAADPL
Experiment: Triple SILAC pull-down after UNC0638 treatment of 293T cells, DMSO/UNC0638 ratio of protein captured by 3×MBT;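 further: mass spectrometry (Q-Exactive) SILAC quantitation, DMSO/UNC0638 ratio computed after subtracting 3×MBTD355N mutant pull-down background, only proteins with at least twofold 3×MBT over mutant signal considered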
Type: cell-based
Design: endogenous in cells; host or cells: HEK 293T
Conditions: SILAC ratio DMSO relative to UNC0638, pull-down with 3xMBT; UNC0638 in light SILAC media; all values in log base 2
measurement.name: Relative to UNC0638 UNC Light
Answer with the number, then the unit.

Query string: Could you tell me which Relative to UNC0638 UNC Light is on file for DEK (protein, UniProt P35659 2-375, looked up) Protein DEK: SASAPAAEGEGTPTQPASEKEPEMPGPREESEEEEDEDDEEEEEEEKEKSLIVEGKREKKKVERLTMQVSSLQREPFTIAQGKGQKLCEIERIHFFLSKKKTDELRNLHKLLYNRPGTVSSLKKNVGQFSGFPFEKGSVQYKKKEEMLKKFRNAMLKSICEVLDLERSGVNSELVKRILNFLMHPKPSGKPLPKSKKTCSKGSKKERNSSGMARKAKRTKCPEILSDESSSDEDEKKNKEESSDDEDKESEEEPPKKTAKREKPKQKATSKSKKSVKSANVKKADSSTTKKNQNSSKKESESEDSSDDEPLIKKLKKPPTDEELKETIKKLLASANLEEVTMKQICKKVYENYPTYDLTERKDFIKTTVKELIS ?
Result string: 0.10 log base 2
